- methodSummary: In vitro cytotoxicity with L-6 cells
- Format: cell-based, rat
- conditionSet: rat skeletal myoblasts; average of four determinations; read-out: Cytotox. L-6 Cells IC50
Task for the reader: assign each of the following compounds its reported IC50 at 72 h.
The answer should read as a number with its unit following.

**Q:** Using the record for Nc1nc(N)nc(Nc2ccc([As]3SCC(CO)S3)cc2)n1 (centres unmarked) [MEL, melarsoprol, reference compound] , report its IC50 at 72 h.
**A:** 7.78 µM

**Q:** Recorded IC50 at 72 h for CCN(CC)CCCC(C)Nc1ccnc2cc(Cl)ccc12 (centres unmarked) [CQ, chloroquine, reference compound] , please?
**A:** 90.9 µM

###

- Test system: T. b. rhodesiense STIB 900
- methodSummary: In vitro microplate resazurin assay against T. brucei rhodesiense
- Format: cell-based, Trypanosoma brucei rhodesiense
- conditionSet: Trypanosoma brucei; STIB 900 bloodstream forms; average of four determinations; read-out: T. Brucei Rhodesiense IC50
metric: IC50 (µM)
I only need the number, in µM, no unit after it.

**Q:** Bench note: what IC50 did NCCN1CCC2(N3CCCC3)C[C@H](c3ccccc3)C1[C@@H](c1ccccc1)C2 (racemic) show?
**A:** 1.13

**Q:** Can you look up the measured IC50 of CN(C)C12CCN(CCN)C([C@@H](c3ccccc3)C1)[C@@H](c1ccccc1)C2 (racemic) for me?
**A:** 2.92

**Q:** Can you share its IC50? I mean this compound: NCCN1CC2[C@H](c3ccccc3)CC(N3CCCC3)(C[C@H]2c2ccccc2)C1 (racemic)
**A:** 0.42

**Q:** Param item = CC(C)(C)C(NCCN1CC2[C@@H](c3ccccc3)CC(N3CCCCC3)(C[C@@H]2c2ccccc2)C1)c1nnnn1C(C)(C)C (mixture of isomers) [Compound 11B] ; retrieve measured IC50.
**A:** 4.92

**Q:** Give its IC50 value. Item: Cc1ccc(S(=O)(=O)NCCN2CCC3(N4CCCC4)C[C@H](c4ccccc4)C2[C@@H](c2ccccc2)C3)cc1 (racemic)
**A:** 0.647

**Q:** Entry CC(C)(C)C(NCCN1CC2[C@H](c3ccccc3)CC(N3CCCCC3)(C[C@H]2c2ccccc2)C1)c1nnnn1C(C)(C)C (mixture of isomers) [Compound 11A] : reported IC50 = ?
**A:** 6.61

**Q:** Can you look up the measured IC50 of Cc1ccc(C(NCCN2CC3C(c4ccccc4)CC(N4CCCCC4)(CC3c3ccccc3)C2)c2nnnn2C(C)(C)C)cc1 (stereo in doubt) [Compound 13B] for me?
**A:** 1

**Q:** State the recorded IC50 for this entry: NCCN1CCC2(N3CCCCC3)C[C@H](c3ccccc3)C1[C@@H](c1ccccc1)C2 (racemic)
**A:** 1.94

**Q:** # query: IC50 of entry CC(C)(C)n1nnnc1CNCCN1CC2[C@H](c3ccccc3)CC(N3CCCCC3)(C[C@H]2c2ccccc2)C1 (racemic)
**A:** 1.2

**Q:** Request the reported IC50 associated with CC(C)(C)n1nnnc1[C@H](NCCN1CC2C(c3ccccc3)CC(N3CCCCC3)(CC2c2ccccc2)C1)c1ccccc1 (mixture of isomers) [Compound 12A]
**A:** 2.2

**Q:** Query (compound): CC(C)(C)n1nnnc1C(NCCN1CC2C(c3ccccc3)CC(N3CCCCC3)(CC2c2ccccc2)C1)c1ccccc1 (racemic) [Compound 12B] ; field requested: IC50
**A:** 1.52

**Q:** What value of IC50 has been reported for the following compound? Cc1ccc(S(=O)(=O)NCCN2CCC3(N4CCCCC4)C[C@H](c4ccccc4)C2[C@@H](c2ccccc2)C3)cc1 (racemic)
**A:** 1.15

**Q:** Quick one: IC50 for O=S(=O)(c1ccc(Cl)cc1)N1CCC2(N3CCCC3)C[C@H](c3ccccc3)C1[C@@H](c1ccccc1)C2 (racemic) ?
**A:** 1.19

**Q:** Name the recorded IC50 for CC(C)(C)n1nnnc1CN(CCN1CC2[C@H](c3ccccc3)CC(N3CCCCC3)(C[C@H]2c2ccccc2)C1)Cc1nnnn1C(C)(C)C (racemic) .
**A:** 1.3

**Q:** # query: IC50 of entry Cc1ccc([C@@H](NCCN2CC3C(c4ccccc4)CC(N4CCCCC4)(CC3c3ccccc3)C2)c2nnnn2C(C)(C)C)cc1 (mixture of isomers) [Compound 13A]
**A:** 0.329
